Assay: Body and liver weights, TAA model
Assay type: in vivo, rat
Conditions: early intervention, CVC 30 mg/kg/day; average±SD
Structures can show the parent of a compound that is named as a salt.
property-name: Liver weight

Task: // query Liver weight value for entry CCCCOCCOc1ccc(-c2ccc3c(c2)/C=C(/C(=O)Nc2ccc([S@@+]([O-])Cc4cncn4CCC)cc2)CCCN3CC(C)C)cc1 [CVC, cenicriviroc mesylate]
Result: 17.9 g

----------
Assay: Body and liver weights, TAA model
Type: in vivo, rat
Details: cirrhosis reversal, CVC 100 mg/kg/day; average±SD
Counter-ions that a name gives are not always drawn.
property-name: Liver weight

Task: Consider the compound shown here: CCCCOCCOc1ccc(-c2ccc3c(c2)/C=C(/C(=O)Nc2ccc([S@@+]([O-])Cc4cncn4CCC)cc2)CCCN3CC(C)C)cc1 [CVC, cenicriviroc mesylate] What is its recorded Liver weight?
Result: 18.5 g

----------
Assay: Body and liver weights, TAA model
Assay type: in vivo, rat
Details: cirrhosis reversal, CVC 30 mg/kg/day; average±SD
Method: Using male Sprague-Dawley rats (n = 72, 10–12 weeks of age; Harlan Laboratories, USA), fibrosis was induced by IP administration of TAA at a dose of 150 mg/kg three times per week for 8 weeks. […] Body weight (measured before and during treatment) and sacrificed animal body and liver/kidney/spleen weights were recorded.
Where a name gives a salt, the structure may show the parent alone.
property-name: Liver weight

Task: # query: Liver weight of entry CCCCOCCOc1ccc(-c2ccc3c(c2)/C=C(/C(=O)Nc2ccc([S@@+]([O-])Cc4cncn4CCC)cc2)CCCN3CC(C)C)cc1 [CVC, cenicriviroc mesylate]
Result: 19 g
